targetSystem: dopamine D2 receptors (Homo sapiens (Human), UniProt P14416)
Sequence (P14416 whole entry): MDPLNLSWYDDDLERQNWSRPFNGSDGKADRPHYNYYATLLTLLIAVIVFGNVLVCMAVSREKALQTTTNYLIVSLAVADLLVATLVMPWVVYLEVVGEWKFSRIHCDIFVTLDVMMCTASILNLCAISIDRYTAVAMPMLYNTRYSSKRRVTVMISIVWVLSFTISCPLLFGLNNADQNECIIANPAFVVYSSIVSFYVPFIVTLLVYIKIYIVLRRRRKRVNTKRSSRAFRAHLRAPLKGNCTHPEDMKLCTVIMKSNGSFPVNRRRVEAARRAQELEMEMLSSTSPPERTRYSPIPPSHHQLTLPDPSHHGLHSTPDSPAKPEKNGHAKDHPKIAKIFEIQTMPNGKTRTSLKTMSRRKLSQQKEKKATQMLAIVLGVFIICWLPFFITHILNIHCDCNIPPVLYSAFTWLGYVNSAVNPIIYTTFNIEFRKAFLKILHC
experimentalDetails: Dopamine D2 receptor Gαi1 BRET (G protein trimer dissociation)
Type: cell-based
conditionsUsed: relative to endogenous ligand dopamine, read-out: Gαi1 BRET Emax % ± SEM
Everything with Emax lower than 70% is criterion not met; everything else, including exactly 70%, is criterion met.

# compound, className
records = [
    ("CCOc1cccc2c3c(oc12)CN(CCc1ccc2ccc(=O)[nH]c2c1)CC3 [I-A27]", "criterion not met"),
    ("COc1cccc2c3c(oc12)CN(C/C=C/COc1ccc2ccc(=O)[nH]c2c1)CC3 [I-A10]", "criterion not met"),
    ("COc1cccc2c1nc1n2CCN(CCCCOc2ccc3ccc(=O)[nH]c3c2)C1 [I-D1]", "criterion met"),
    ("COc1cccc2c1cc1n2CCN(CCCCOc2ccc3c(c2)NC(=O)CC3)C1 [I-C2]", "criterion met"),
    ("COc1cccc2c3c([nH]c12)CN(CC1(O)CCCCC1)CC3 [I-B9]", "criterion not met"),
    ("CCOc1cccc2c3c(oc12)CN(CCNC(=O)C1CCCCCC1)CC3 [I-A32]", "criterion not met"),
    ("CCOc1cccc2c3c(oc12)CN(CC[C@H]1CC[C@H](NC(=O)N(C)C)CC1)CC3 [I-A17]", "criterion not met"),
]

###

experimentalDetails: Brain permeability test, single intraperitoneal dose in C57 male mice
Assay type: in vivo
conditionsUsed: male, C57, mouse, ip, intraperitoneal 5 mg/kg, plasma
This section presents compounds with their documented AUC values.

# compound, readoutUnits, AUC
rows = [
    ("COc1cccc2c1cc1n2CCN(CCCCOc2ccc3c(c2)NC(=O)CC3)C1 [I-C2]", "ng·h/mL", 6520),
    ("COc1cccc2c1cc1n2CCN(CCCCOc2ccc3ccc(=O)[nH]c3c2)C1 [I-C1]", "ng·h/mL", 6290),
    ("COc1cccc2c1cc1n2CCN(CC[C@H]2CC[C@H](NC(=O)N(C)C)CC2)C1 [I-C7]", "ng·h/mL", 1020),
]

###

experimentalDetails: Brain permeability test, single intraperitoneal dose in C57 male mice
Type: in vivo
conditionsUsed: male, C57, mouse, intraperitoneal 5 mg/kg, 4.0 h, brain, read-out: 4.0 h brain concentration

# molecule, concentration at 4 h
records = [
    ("COc1cccc2c1cc1n2CCN(CCCCOc2ccc3c(c2)NC(=O)CC3)C1 [I-C2]", "599 ng/mL"),
    ("COc1cccc2c1cc1n2CCN(CC[C@H]2CC[C@H](NC(=O)N(C)C)CC2)C1 [I-C7]", "491 ng/mL"),
    ("COc1cccc2c1cc1n2CCN(CCCCOc2ccc3ccc(=O)[nH]c3c2)C1 [I-C1]", "161 ng/mL"),
]

###

targetSystem: dopamine D2 receptors (Homo sapiens (Human))
experimentalDetails: Dopamine D2 receptor Gαi1 BRET (G protein trimer dissociation)
Format: cell-based
conditionsUsed: relative to endogenous ligand dopamine, read-out: Gαi1 BRET Emax % ± SEM
label 1 if Emax is below 40%. label 0 if not; exact matches included in label 0.

# cpdSmiles, className
rows = [
    ("CCOc1cccc2c1cc1n2CCN(CC[C@H]2CC[C@H](NC(=O)N(C)C)CC2)C1", "label 1"),
    ("COc1cccc2c3c(oc12)CN(CC[C@H]1CC[C@H](NC(=O)N(C)C)CC1)CC3", "label 0"),
    ("COc1cccc2c1cc1n2CCN(CC2(O)CCCCC2)C1", "label 0"),
    ("COc1cccc2c1cc1n2CCN(CC[C@H]2CC[C@H](NC(=O)N(C)C)CC2)C1", "label 0"),
    ("COc1cccc2c3c(oc12)CN(CCCOc1ccc2ccc(=O)[nH]c2c1)CC3", "label 0"),
    ("COc1cccc2c1cc1n2CCN(C/C=C/COc2ccc3c(c2)NC(=O)CC3)C1", "label 0"),
    ("COc1cccc2c3c([nH]c12)CN(CCCCOc1ccc2ccc(=O)[nH]c2c1)CC3", "label 1"),
    ("COc1cccc2c3c([nH]c12)CN(CC[C@H]1CC[C@H](NC(=O)N(C)C)CC1)CC3", "label 1"),
    ("COc1cccc2c1nc1n2CCN(C/C=C/COc2ccc3c(c2)NC(=O)CC3)C1", "label 0"),
    ("COc1cccc2c1cc1n2CCN(C/C=C/COc2ccc3ccc(=O)[nH]c3c2)C1", "label 0"),
    ("CCOc1cccc2c3c(oc12)CN(CC1(O)CCCCC1)CC3", "label 1"),
    ("COc1cccc2c3c(oc12)CN(CC[C@H]1CC[C@H](NS(C)(=O)=O)CC1)CC3", "label 0"),
    ("CCOc1cccc2c1cc1n2CCN(CCCCOc2ccc3ccc(=O)[nH]c3c2)C1", "label 1"),
    ("COc1cccc2c3c(oc12)CN(CCCCOc1ccc2ccc(=O)[nH]c2c1)CC3", "label 0"),
    ("COc1cccc2c3c([nH]c12)CN(CCCOc1ccc2c(c1)NC(=O)CC2)CC3", "label 1"),
    ("COc1cccc2c3c(oc12)CN(CCCCn1ncc(=O)n(C)c1=O)CC3", "label 0"),
]

###

This section presents compounds with their documented Emax values.
targetSystem: 5-hydroxytryptamine 1A (5-HT1A) receptors (Homo sapiens (Human))
Sequence (P08908 whole entry): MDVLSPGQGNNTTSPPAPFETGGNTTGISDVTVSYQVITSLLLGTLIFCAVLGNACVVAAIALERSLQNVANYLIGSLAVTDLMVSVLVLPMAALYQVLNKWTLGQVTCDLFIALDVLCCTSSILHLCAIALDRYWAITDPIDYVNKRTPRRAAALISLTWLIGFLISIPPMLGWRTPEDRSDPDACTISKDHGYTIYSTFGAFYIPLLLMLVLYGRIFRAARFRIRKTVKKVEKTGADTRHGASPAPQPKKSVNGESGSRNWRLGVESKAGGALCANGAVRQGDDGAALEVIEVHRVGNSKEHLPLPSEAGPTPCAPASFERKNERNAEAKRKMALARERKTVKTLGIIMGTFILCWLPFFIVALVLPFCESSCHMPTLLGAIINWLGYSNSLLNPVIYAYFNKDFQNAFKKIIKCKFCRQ
experimentalDetails: 5-HT1A receptor β-arrestin2 BRET (recruitment)
Assay type: cell-based
conditionsUsed: relative to endogenous ligand 5-hydroxytryptamine

# compound, Emax / %
data = [
    ("CCOc1cccc2c3c(oc12)CN(CCNC(=O)C1CCCCCC1)CC3 [I-A32]", 31.6),
    ("CCOc1cccc2c3c(oc12)CN(CCNC(=O)c1ccccc1)CC3 [I-A35]", 39.8),
    ("CCOc1cccc2c3c(oc12)CN(CCCCOc1ccc2ccc(=O)[nH]c2n1)CC3 [I-A29]", 8.46),
    ("CCOc1cccc2c3c(oc12)CN(CCN1CCc2nn(C)c(C)c2C1=O)CC3 [I-A39]", 20.6),
    ("CCOc1cccc2c3c(oc12)CN(CCN1CCCc2c(cnn2C)C1=O)CC3 [I-A42]", 21),
]

###

experimentalDetails: Pharmacokinetics in SD rats, single dose intragastric and intravenous
Type: in vivo
conditionsUsed: male, rat, plasma, oral administration, 10 mg/kg, read-out: Bioavailability F
Procedure: Testing of pharmacokinetic properties of compounds administered in a single dose to SD rats by intragastric administration and intravenous injection After the compound was administered in a single dose to male SD rats, blood samples were collected at different time points. The concentration of the compound in the plasma of the rats was determined by LC-MS/MS and the relevant pharmacokinetic parameters were calculated to investigate the pharmacokinetics of the compound in rats. […]
Everything with bioavailability lower than 80% is false (0); everything else, including exactly 80%, is true (1).

# molecule, className
measured = [
    ("COc1cccc2c1cc1n2CCN(CCCCOc2ccc3ccc(=O)[nH]c3c2)C1 [I-C1]", "false (0)"),
    ("COc1cccc2c1cc1n2CCN(CCCCOc2ccc3c(c2)NC(=O)CC3)C1 [I-C2]", "true (1)"),
    ("COc1cccc2c1cc1n2CCN(CC[C@H]2CC[C@H](NC(=O)N(C)C)CC2)C1 [I-C7]", "true (1)"),
    ("COc1cccc2c3c(oc12)CN(CC[C@H]1CC[C@H](NC(=O)N(C)C)CC1)CC3 [I-A12]", "true (1)"),
    ("COc1cccc2c3c([nH]c12)CN(CC[C@H]1CC[C@H](NC(=O)N(C)C)CC1)CC3 [I-B7]", "true (1)"),
]

###

experimentalDetails: Pharmacokinetics in SD rats, single dose intragastric and intravenous
Assay type: in vivo
conditionsUsed: male, rat, plasma, intravenous injection, 3 mg/kg, read-out: Clearance CL

# molecule, readoutUnits, clearance
records = [
    ("COc1cccc2c1cc1n2CCN(CCCCOc2ccc3ccc(=O)[nH]c3c2)C1 [I-C1]", "mL/min/kg", 10.1),
    ("COc1cccc2c3c(oc12)CN(CC[C@H]1CC[C@H](NC(=O)N(C)C)CC1)CC3 [I-A12]", "mL/min/kg", 45.4),
    ("COc1cccc2c1cc1n2CCN(CCCCOc2ccc3c(c2)NC(=O)CC3)C1 [I-C2]", "mL/min/kg", 19.1),
    ("COc1cccc2c3c([nH]c12)CN(CC[C@H]1CC[C@H](NC(=O)N(C)C)CC1)CC3 [I-B7]", "mL/min/kg", 21),
]

###

This section presents molecules with their documented EC50 values.
targetSystem: dopamine D2 receptors (Homo sapiens (Human))
experimentalDetails: Dopamine D2 receptor β-arrestin2 BRET (recruitment)
Assay type: cell-based
conditionsUsed: unit printed only in Cariprazine cell, read-out: β-arrestin2 BRET EC50

# molecule, EC50, nM
records = [
    ("COc1cccc2c3c([nH]c12)CN(CCCOc1ccc2ccc(=O)[nH]c2c1)CC3", 0.47),
    ("CCOc1cccc2c3c(oc12)CN(CCC1CC(NC(=O)N(C)C)C1)CC3 (stereo not shown)", 2.81),
    ("COc1cccc2c3c(oc12)CN(CCCCOc1ccc2ccc(=O)n(C)c2c1)CC3", 81.2),
    ("COc1cccc2c3c(oc12)CN(CCCOc1ccc2ccc(=O)[nH]c2c1)CC3", 52.6),
    ("COc1cccc2c3c(oc12)CN(CC[C@H]1CC[C@H](NS(C)(=O)=O)CC1)CC3", 4.61),
    ("COc1cccc2c1cc1n2CCN(C/C=C/COc2ccc3c(c2)NC(=O)CC3)C1", 2.45),
    ("COc1cccc2c3c(oc12)CN(CC[C@H]1CC[C@H](NC(=O)N(C)C)CC1)CC3", 10.7),
    ("CCOc1cccc2c3c(oc12)CN(CCCCOc1ccc2c(c1)NC(=O)CO2)CC3", 23.7),
    ("COc1cccc2c1nc1n2CCN(CCCCOc2ccc3ccc(=O)[nH]c3c2)C1 [I-D1]", 56),
    ("COc1cccc2c1cc1n2CCN(CC2(O)CCCCC2)C1", 54.4),
    ("COc1cccc2c1nc1n2CCN(CCCOc2ccc3ccc(=O)[nH]c3c2)C1", 18.3),
    ("COc1cccc2c1nc1n2CCN(CCCCOc2ccc3c(c2)NC(=O)CC3)C1 [I-D2]", 70.1),
    ("CCOc1cccc2c1cc1n2CCN(CC[C@H]2CC[C@H](NC(=O)N(C)C)CC2)C1", 128),
    ("CCOc1cccc2c3c(oc12)CN(CCCCN1C(=O)CC2(CCCC2)CC1=O)CC3", 213),
    ("CCOc1cccc2c3c(oc12)CN(CCCCOc1ccc2ccc(=O)[nH]c2c1)CC3", 11.3),
    ("COc1cccc2c3c([nH]c12)CN(CCCOc1ccc2c(c1)NC(=O)CC2)CC3", 6.53),
    ("COc1cccc2c3c(oc12)CN(CC1(O)CCCCC1)CC3", 23.6),
    ("COc1cccc2c3c(oc12)CN(CCCCn1ncc(=O)n(C)c1=O)CC3", 86.4),
    ("COc1cccc2c3c([nH]c12)CN(CC1(O)CCCCC1)CC3", 133),
    ("COc1cccc2c1nc1n2CCN(C/C=C/COc2ccc3c(c2)NC(=O)CC3)C1", 38.8),
    ("COc1cccc2c1cc1n2CCN(C/C=C/COc2ccc3ccc(=O)[nH]c3c2)C1", 20.8),
    ("CCOc1cccc2c3c(oc12)CN(CCCCn1ncc(=O)n(C)c1=O)CC3", 48.8),
    ("CCOc1cccc2c3c(oc12)CN(CC[C@H]1CC[C@H](NC(=O)N(C)C)CC1)CC3", 6.7),
    ("CCOc1cccc2c1cc1n2CCN(CCCCOc2ccc3ccc(=O)[nH]c3c2)C1", 828),
    ("COc1cccc2c1cc1n2CCN(CCCCOc2ccc3ccc(=O)[nH]c3c2)C1", 220),
    ("COc1cccc2c1nc1n2CCN(CCCOc2ccc3c(c2)NC(=O)CC3)C1", 33.6),
    ("CCOc1cccc2c3c(oc12)CN(CCNC(=O)C1CCCC1)CC3", 56.7),
    ("COc1cccc2c1cc1n2CCN(CC[C@H]2CC[C@H](NC(=O)N(C)C)CC2)C1", 291),
    ("COc1cccc2c1cc1n2CCN(CCCCOc2ccc3c(c2)NC(=O)CC3)C1", 122),
    ("COc1cccc2c1nc1n2CCN(CC2(O)CCCCC2)C1", 180),
    ("CCOc1cccc2c3c(oc12)CN(CCCCOc1ccc2ccc(=O)[nH]c2n1)CC3", 10.1),
    ("CCOc1cccc2c3c(oc12)CN(CCNC(=O)c1cccs1)CC3", 0.75),
    ("CCOc1cccc2c3c(oc12)CN(CCCCc1ccc2ccc(=O)[nH]c2c1)CC3", 54.6),
    ("CCOc1cccc2c3c(oc12)CN(CCNC(=O)C1CCCCCC1)CC3", 233),
    ("COc1cccc2c3c([nH]c12)CN(CCCCOc1ccc2ccc(=O)[nH]c2c1)CC3", 13.1),
    ("COc1cccc2c3c(oc12)CN(C/C=C/COc1ccc2ccc(=O)[nH]c2c1)CC3", 4.61),
    ("CCOc1cccc2c3c(oc12)CN(CCCn1ncc(=O)n(C)c1=O)CC3", 206),
]
